Target: Coagulation factor XI (Homo sapiens)
Assay: human FXIa protease inhibitors, primary screen, biochemical, single compound per well (AID 687);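 note: 0% = enzyme without compound and 100% = blank wells lacking enzyme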
Conditions: purified human FXIa, fluorogenic AMC substrate cleavage; at 10 µM; stronger effect = higher value
In all, about 33,000 compounds went through this assay and about 95 (0.3%) were called active. Many of the other results were omitted from the sample, so actives are more common in it than they were.
endpoint-label: inhibition (%)
The reply should be a number in %, with the unit left off.

Please review the following examples before continuing.
O=C(COc1ccc(Cl)cc1)Nc1ccccc1CO    2.06
O=C(CN1CCSCC1)N/N=C/c1ccc(F)cc1    -8.31

Could you share which inhibition value was measured for `N#C/C(=C(\O)CCl)c1nnc2n1CCCCC2` ?
-2.88

Which inhibition value belongs to Cc1ccc(CNC(=O)C2CCCN2C(=O)NCc2ccccc2)cc1 (stereo not drawn) ?
26.7

Data request, read-out inhibition, for Cc1ccc(C2(C(F)(F)F)N=C3Sc4cc(C)cc(C)c4N3C(=O)N2)cc1 (stereo not drawn)
-3.09

inhibition for `COC(=O)c1cccc(-n2[nH]nnc2=S)c1` ?
8.73

Entry under review: `O=C(Cc1c(F)cccc1Cl)N1CCN(C(=O)c2ccco2)CC1` . Reported inhibition?
2.75

What does the record list as inhibition for `O=C(NCCOc1ccccc1)c1ccccc1` ?
-5.53

Fill blank: measured inhibition of the compound `Cc1ccc(OCCCC(=O)Nc2ccc(N3CCOCC3)cc2)cc1` is ____.
3.13

Could you share which inhibition value was measured for CCOc1ccc(C(O)Cc2nc3ccccc3n2C)cc1 (stereo not drawn) ?
4.61

// returns reported inhibition for input `COc1ccc(CCN(C)CCN2C(=O)c3ccccc3C2=O)cc1OC`
-0.63

###

Molecular target: Coagulation factor XI (Homo sapiens) (UniProt P03951)
Sequence (P03951 19-387 limits assumed): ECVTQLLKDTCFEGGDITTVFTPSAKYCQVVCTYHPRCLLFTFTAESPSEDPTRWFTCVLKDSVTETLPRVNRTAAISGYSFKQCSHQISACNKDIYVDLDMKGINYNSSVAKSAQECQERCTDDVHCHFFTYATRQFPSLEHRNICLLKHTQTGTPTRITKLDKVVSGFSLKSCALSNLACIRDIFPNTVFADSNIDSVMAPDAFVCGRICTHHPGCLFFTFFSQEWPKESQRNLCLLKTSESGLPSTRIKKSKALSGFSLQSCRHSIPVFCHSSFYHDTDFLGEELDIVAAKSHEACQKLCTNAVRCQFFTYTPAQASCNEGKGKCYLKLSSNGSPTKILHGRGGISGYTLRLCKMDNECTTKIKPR
Sequence (P03951 388-625 limits assumed): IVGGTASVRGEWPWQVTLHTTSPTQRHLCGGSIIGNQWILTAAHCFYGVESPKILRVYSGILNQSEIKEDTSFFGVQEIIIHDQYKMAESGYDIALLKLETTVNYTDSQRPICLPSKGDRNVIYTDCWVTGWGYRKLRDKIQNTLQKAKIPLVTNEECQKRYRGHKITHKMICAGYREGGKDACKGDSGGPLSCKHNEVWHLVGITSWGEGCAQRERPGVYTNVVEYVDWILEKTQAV
Assay: human FXIa protease inhibitors, primary screen, biochemical, single compound per well (AID 687);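 note: 0% = enzyme without compound and 100% = blank wells lacking enzyme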
Conditions: purified human FXIa, fluorogenic AMC substrate cleavage; at 10 µM; stronger effect = higher value
Hit rate of the full screen: of about 33,000 compounds, about 95 (0.3%) were called active. Only a selection was taken, and actives are over-represented in it overall.
endpoint-label: inhibition (%)
Respond numerically; units are % and should not be typed.

The cases that follow already have their inhibition on record.
CC(C)(C)c1nc2ccccc2c(=O)n1N1C(=O)c2ccccc2C1=O    2.66
COc1ccccc1Nc1nc(N)nc(CN(C)C2CCCCC2)n1    -1.79

Give the measured inhibition of `COc1ccc(-n2nc(C(=O)NCC(=O)Nc3cccc(C)n3)c3ccccc3c2=O)cc1` .
-9.02

Request the reported inhibition associated with `COc1ccc2oc(=O)c(C(=O)N3CCCc4ccccc43)cc2c1`
2.52

###

Biological target: Coagulation factor XI (Homo sapiens)
Assay: human FXIa protease inhibitors, primary screen, biochemical, single compound per well (AID 687);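 note: 0% = enzyme without compound and 100% = blank wells lacking enzyme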
Details: purified human FXIa, fluorogenic AMC substrate cleavage; at 10 µM; stronger effect = higher value
About 95 (0.3%) of roughly 33,000 compounds were called active. The list comes from a sample in which actives are over-represented; it also holds close analogues and randomly drawn compounds.
endpoint-label: inhibition

O=C(Nc1ccc(S(=O)(=O)N2CCc3ccccc3C2)cc1)c1ccccc1    4.52% (inactive)
COc1ccc(N2CCN(C(=O)CCc3nc(-c4ccc(C)cc4)no3)CC2)cc1    8.76% (inactive)
O=C(C(NS(=O)(=O)c1cccc2nsnc12)c1ccccc1)N1CCN(c2ccccc2)CC1 (stereo not drawn)    4.95% (inactive)

// lookup inhibition for COC(=O)C1C(=O)NCC1c1ccc(C)cc1 (stereo not drawn)
8.67% (inactive)

Fill in the blank: the reported inhibition of `O=C(CN1CCCCCC1)N1c2ccccc2Sc2ccc(C(F)(F)F)cc21` is ____.
2.04% (inactive)

// inhibition lookup, key: COC(=O)C1=C(C)Nc2ncnn2C1c1cccnc1 (stereo not drawn)
-8.85% (inactive)

Please give the measured inhibition for this compound: C=CCn1c(SCc2c(C)noc2C)nc2sc3c(c2c1=O)CCC(C)C3 (stereo not drawn)
-0.06% (inactive)

# inhibition lookup, item `Cc1ccc(-c2csc(NC(=O)c3cccs3)n2)cc1`
-11.7% (inactive)

Source: PubChem BioAssay AID687
